I'd appreciate it if you could supply inhibition at 10 µM values for the items below.
MEASURED ON: human 5-HT6 receptor (Homo sapiens)
Construct: expressed in transfected cells
Sequence (P50406 whole entry): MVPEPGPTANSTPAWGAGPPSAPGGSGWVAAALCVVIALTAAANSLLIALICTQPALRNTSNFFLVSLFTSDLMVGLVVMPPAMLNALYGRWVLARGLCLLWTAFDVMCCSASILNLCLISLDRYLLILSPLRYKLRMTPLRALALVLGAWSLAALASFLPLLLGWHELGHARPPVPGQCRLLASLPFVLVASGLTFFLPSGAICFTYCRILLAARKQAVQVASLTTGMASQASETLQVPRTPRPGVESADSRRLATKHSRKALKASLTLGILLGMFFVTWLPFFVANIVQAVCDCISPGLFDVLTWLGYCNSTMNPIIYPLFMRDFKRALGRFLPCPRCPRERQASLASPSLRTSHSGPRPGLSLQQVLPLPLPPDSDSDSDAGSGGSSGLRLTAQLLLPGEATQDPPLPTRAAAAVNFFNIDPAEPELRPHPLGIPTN
MEASUREMENT PROTOCOL: GPCR radioligand binding assay, [3H]-LSD displacement, HEK293 membranes
TEST CONDITIONS: 5-HT6; average, values below 0 and above 100% were set as 0 and 100; read-out: %inh 5-HT6 corrected*
All answers are understood in %, so give the number only.

Input Oc1ccccc1N1CCCCC1 . Output inhibition at 10 µM: 55

Consider CC(=O)c1sc(-c2ccc(O)cc2)nc1C [E1] . Its measured inhibition at 10 µM is 65

The reported inhibition at 10 µM of the compound Nc1nnc(-c2cccs2)[nH]1 was 52

Reported inhibition at 10 µM of CC1CCc2sc(C(=O)O)cc2C1 (stereo not shown) : 45

inhibition at 10 µM in this record for O=C(c1ccccc1F)N1CCNCC1 : 17

Form field inhibition at 10 µM, entry NC(=O)N1CCC(C(=O)O)CC1 : 47

Per the records, this compound ( O=C(O)C1CCN(c2ncccn2)CC1 ) has inhibition at 10 µM equal to 29

----------
MEASURED ON: human 5-HT1A receptor (Homo sapiens, UniProt P08908)
Construct: expressed in transfected cells
Sequence (P08908 1-422): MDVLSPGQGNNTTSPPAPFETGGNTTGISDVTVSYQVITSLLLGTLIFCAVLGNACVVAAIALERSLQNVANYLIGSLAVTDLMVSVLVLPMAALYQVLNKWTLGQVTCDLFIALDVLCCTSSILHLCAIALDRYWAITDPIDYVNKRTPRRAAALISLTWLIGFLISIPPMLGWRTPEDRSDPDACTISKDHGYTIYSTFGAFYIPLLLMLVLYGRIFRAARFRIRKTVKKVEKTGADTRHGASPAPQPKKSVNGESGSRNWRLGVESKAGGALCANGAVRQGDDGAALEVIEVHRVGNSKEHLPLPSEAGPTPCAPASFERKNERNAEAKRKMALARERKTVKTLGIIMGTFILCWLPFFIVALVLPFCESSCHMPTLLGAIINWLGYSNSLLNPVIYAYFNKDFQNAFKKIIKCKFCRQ
MEASUREMENT PROTOCOL: GPCR radioligand binding assay, [3H]-8-OH-DPAT displacement, HEK293 membranes
TEST CONDITIONS: 5-HT1A; average, values below 0 and above 100% were set as 0 and 100
Record form. Attribute: %inh 5-HT1A corrected*. Fill in for each entry.
Numbers only; they are read as %.

Measured on human 5-HT1A receptor (Homo sapiens, UniProt P08908), COC(=O)c1c(C)nc(C2CC2)[nH]c1=O has a documented %inh 5-HT1A corrected* of 16

// assay human 5-HT1A receptor (Homo sapiens, UniProt P08908), entry COc1cccc(NC2=NCCCCC2)c1 , %inh 5-HT1A corrected* value = 11

Simply: O=C(CN1CCNCC1)c1ccccc1 , human 5-HT1A receptor (Homo sapiens, UniProt P08908), %inh 5-HT1A corrected* = 6

// assay human 5-HT1A receptor (Homo sapiens, UniProt P08908), entry COc1ccc(C2=CCNCC2)cc1 , %inh 5-HT1A corrected* value = 17

So the reported %inh 5-HT1A corrected* for COc1ccccc1C1CCNCC1 , on human 5-HT1A receptor (Homo sapiens, UniProt P08908), turned out to be 99

Record Cc1cc(C)c2c(=O)[nH]n(C)c2n1 ; system human 5-HT1A receptor (Homo sapiens, UniProt P08908); %inh 5-HT1A corrected* = 5.64

%inh 5-HT1A corrected* for human 5-HT1A receptor (Homo sapiens, UniProt P08908) with input Fc1ccc2c(C3CCNCC3)c[nH]c2c1 equals 81

// returns %inh 5-HT1A corrected* for O=C(O)C1CCCN(C(=O)N2CCCC2)C1 (stereo not drawn) with human 5-HT1A receptor (Homo sapiens, UniProt P08908); value = 5

Entry O=C(Nc1ccccc1)C1CC1 : %inh 5-HT1A corrected* on human 5-HT1A receptor (Homo sapiens, UniProt P08908) = 12

Note to self: %inh 5-HT1A corrected* of O=C1CNCCN1c1ccccc1 with human 5-HT1A receptor (Homo sapiens, UniProt P08908) was 4.62

Simply: O=C(O)c1ccc(CN2CCOCC2)cc1 , human 5-HT1A receptor (Homo sapiens, UniProt P08908), %inh 5-HT1A corrected* = 5

Entry Cc1cnc(C(F)(F)F)cn1 , human 5-HT1A receptor (Homo sapiens, UniProt P08908) data, %inh 5-HT1A corrected* value: 1.1

With human 5-HT1A receptor (Homo sapiens, UniProt P08908) as the test system, c1ccc2c(N3CCNCC3)ccnc2c1 showed %inh 5-HT1A corrected* of 81

Measured %inh 5-HT1A corrected* (human 5-HT1A receptor (Homo sapiens, UniProt P08908)), entry Cc1cc(-c2ccccc2)n[nH]1 : 9

// returns %inh 5-HT1A corrected* for NC1CCc2ccccc21 (stereo not drawn) with human 5-HT1A receptor (Homo sapiens, UniProt P08908); value = 17

The recorded %inh 5-HT1A corrected* with human 5-HT1A receptor (Homo sapiens, UniProt P08908) for Oc1cnc(-c2ccccc2)nc1 was 6.48

Short answer on human 5-HT1A receptor (Homo sapiens, UniProt P08908) for NCC1(c2ccccc2)CCOCC1 , %inh 5-HT1A corrected*: 11

Entry CS(=O)(=O)c1ccc(N2CCNCC2)cc1 , human 5-HT1A receptor (Homo sapiens, UniProt P08908) data, %inh 5-HT1A corrected* value: 4.22

%inh 5-HT1A corrected* on human 5-HT1A receptor (Homo sapiens, UniProt P08908) for CCN(CC)c1cccc(C)c1 is 8.49

Query Cn1nc(C(F)(F)F)cc1O on human 5-HT1A receptor (Homo sapiens, UniProt P08908); %inh 5-HT1A corrected* returned: 21

Known value: human 5-HT1A receptor (Homo sapiens, UniProt P08908) %inh 5-HT1A corrected* of the molecule O=C1CCC(=O)N(c2ccccc2)N1 equals 6

%inh 5-HT1A corrected* value, target or system human 5-HT1A receptor (Homo sapiens, UniProt P08908), for Oc1ccc(C2CCNCC2)cc1 : 5.37

// assay human 5-HT1A receptor (Homo sapiens, UniProt P08908), entry CC(=O)c1ccc2c(c1)CCCN2 , %inh 5-HT1A corrected* value = 2.29

Reading of %inh 5-HT1A corrected* for Cc1nccn1Cc1cccc(C#N)c1 with human 5-HT1A receptor (Homo sapiens, UniProt P08908): 10

Entry O=C(c1ccncc1)N1CCNCC1 [E2] under human 5-HT1A receptor (Homo sapiens, UniProt P08908) had %inh 5-HT1A corrected* of 3.69

Value sought: %inh 5-HT1A corrected*, system human 5-HT1A receptor (Homo sapiens, UniProt P08908), item Cc1ccc(CCNc2ccccc2)cn1 . Result: 5

Hey, human 5-HT1A receptor (Homo sapiens, UniProt P08908) data for O=C(O)c1cccc(Nc2ncccn2)c1 : %inh 5-HT1A corrected* came out at 10

Item: c1ccc2oc(C3CCCNC3)nc2c1 (stereo not drawn) | System: human 5-HT1A receptor (Homo sapiens, UniProt P08908) | %inh 5-HT1A corrected*: 78

Item: N#Cc1ccc2ncsc2c1 | System: human 5-HT1A receptor (Homo sapiens, UniProt P08908) | %inh 5-HT1A corrected*: 5.41

Considering CC(CN)N1CCc2sccc2C1 (stereo not drawn) , its %inh 5-HT1A corrected* with human 5-HT1A receptor (Homo sapiens, UniProt P08908) was recorded as 33

For the molecule O=C(c1ccccc1)N1CCC(CO)CC1 , the measured %inh 5-HT1A corrected* on human 5-HT1A receptor (Homo sapiens, UniProt P08908) was 11

Entry Fc1ccc(CC2CCCNC2)cc1 (stereo not drawn) , human 5-HT1A receptor (Homo sapiens, UniProt P08908) data, %inh 5-HT1A corrected* value: 21

Test item O=C1CSC(Nc2ccc(F)cc2)=N1 ; human 5-HT1A receptor (Homo sapiens, UniProt P08908); reported %inh 5-HT1A corrected* was 12

# value of %inh 5-HT1A corrected*, human 5-HT1A receptor (Homo sapiens, UniProt P08908), item c1ccc2sc(N3CCNCC3)nc2c1 = 83

Measured on human 5-HT1A receptor (Homo sapiens, UniProt P08908), CN(C)c1cc(CN)ccn1 has a documented %inh 5-HT1A corrected* of 11

Simply: c1cnc2c(c1)NCCC2 , human 5-HT1A receptor (Homo sapiens, UniProt P08908), %inh 5-HT1A corrected* = 12

The observed %inh 5-HT1A corrected* for O=C(NC1CC1)c1ccccc1O when tested with human 5-HT1A receptor (Homo sapiens, UniProt P08908) stands at 1.71

Observed %inh 5-HT1A corrected*, human 5-HT1A receptor (Homo sapiens, UniProt P08908), CCc1nccn1CC(=O)O : 8.43

For the molecule Cc1ccc(C)n1Cc1ccccc1Cl , the measured %inh 5-HT1A corrected* on human 5-HT1A receptor (Homo sapiens, UniProt P08908) was 6.37

Query O=C1CCN(c2ccncc2)CC1 on human 5-HT1A receptor (Homo sapiens, UniProt P08908); %inh 5-HT1A corrected* returned: 0.831

The recorded %inh 5-HT1A corrected* with human 5-HT1A receptor (Homo sapiens, UniProt P08908) for O=C(CN1CCCC1)c1ccccc1Cl was 78

Item CCc1ccc(NC2=NCCCS2)cc1 [D2] ; assay system human 5-HT1A receptor (Homo sapiens, UniProt P08908); %inh 5-HT1A corrected* reported as 29

Response field %inh 5-HT1A corrected* (human 5-HT1A receptor (Homo sapiens, UniProt P08908)) for item Brc1ccc(-c2ccon2)cc1 : 3.49

Form field %inh 5-HT1A corrected* for item Nc1ccc(-c2ccccc2)cc1C(=O)O on human 5-HT1A receptor (Homo sapiens, UniProt P08908): 15

Bench note, human 5-HT1A receptor (Homo sapiens, UniProt P08908): entry Clc1ccc2nnnn2n1 , its %inh 5-HT1A corrected* = 3.55
